Overview of reported koff across a group of binders:
Target: T1, Dimeric human CD48-mFc (human)
T1 construct: the whole entry is the construct; also called hCD48-mFc
T1 chain: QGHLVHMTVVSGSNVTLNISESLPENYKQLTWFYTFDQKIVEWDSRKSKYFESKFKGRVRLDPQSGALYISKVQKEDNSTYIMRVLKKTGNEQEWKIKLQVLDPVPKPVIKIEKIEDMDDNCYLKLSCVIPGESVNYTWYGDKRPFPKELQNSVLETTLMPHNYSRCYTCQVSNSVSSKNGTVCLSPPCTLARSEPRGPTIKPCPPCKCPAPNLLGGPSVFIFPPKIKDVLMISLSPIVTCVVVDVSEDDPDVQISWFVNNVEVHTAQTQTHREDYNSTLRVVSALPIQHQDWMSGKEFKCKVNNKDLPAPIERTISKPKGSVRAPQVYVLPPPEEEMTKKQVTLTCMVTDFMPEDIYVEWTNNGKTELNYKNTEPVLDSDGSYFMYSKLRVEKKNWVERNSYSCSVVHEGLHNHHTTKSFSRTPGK
Experiment: SPR (Biacore), antibody captured by anti-Fc, CD48 in solution, 37 C
Note: unit s⁻¹ is implicit; provide only the numeric part.

H4H1770P (antibody, human IgG4, V domains shown, Human IgG4 Fc (H4H)) VH: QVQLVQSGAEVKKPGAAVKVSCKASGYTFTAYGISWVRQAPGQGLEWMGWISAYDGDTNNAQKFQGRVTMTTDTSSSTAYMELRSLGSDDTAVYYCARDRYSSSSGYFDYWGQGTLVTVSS VL: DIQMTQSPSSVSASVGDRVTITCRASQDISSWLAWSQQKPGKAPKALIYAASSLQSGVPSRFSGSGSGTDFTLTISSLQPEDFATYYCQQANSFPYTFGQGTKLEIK    3.08e-05
H2M1713N (antibody, mouse IgG2, V domains shown, Human variable domains, mouse IgG2 Fc (H2M)) VH: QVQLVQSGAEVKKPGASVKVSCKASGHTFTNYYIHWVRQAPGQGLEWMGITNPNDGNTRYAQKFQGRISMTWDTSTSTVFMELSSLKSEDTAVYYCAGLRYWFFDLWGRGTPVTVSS VL: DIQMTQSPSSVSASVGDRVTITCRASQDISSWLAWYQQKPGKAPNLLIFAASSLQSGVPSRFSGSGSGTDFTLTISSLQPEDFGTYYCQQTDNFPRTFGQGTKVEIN    8.27e-05
H2M1811N (antibody, mouse IgG2, V domains shown, Human variable domains, mouse IgG2 Fc (H2M)) VH: QVQLVQSGAEAREPGASVRVSCKASGYTFTDYFIHWVRQAPGQGLEWMGWINPNSGATNFAQKFQGRVTMTRDTSLITAYMDLSRLKSDDAAVFYCARDVDGSGWYLDFWGQGTLVTVSS VL: EIVLTQSPATLSLSPGERATLSCRASQSVSIYLAWYQQKPGQAPRLLIYDASNRATGIPARFSGSGSGTDFTLTISRLEPEDFAVYYCQQRSDWPPSITFGQGTRLEIK    0.000256
H4H1771P (antibody, human IgG4, V domains shown, Human IgG4 Fc (H4H)) VH: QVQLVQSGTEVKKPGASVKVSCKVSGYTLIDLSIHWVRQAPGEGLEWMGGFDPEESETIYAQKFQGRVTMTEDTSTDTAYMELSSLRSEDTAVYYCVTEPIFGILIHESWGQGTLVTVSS VL: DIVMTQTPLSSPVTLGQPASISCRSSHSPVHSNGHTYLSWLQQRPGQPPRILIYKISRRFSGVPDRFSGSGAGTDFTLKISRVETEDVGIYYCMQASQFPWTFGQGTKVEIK    4.81e-05
H2M1709N (antibody, mouse IgG2, V domains shown, Human variable domains, mouse IgG2 Fc (H2M)) VH: QVQLVQSGAEVKKPGASVKVSCKVSGYTLTELSIHWVRQAPGKGLEWMGGFDPEDGETIYAQKFQGRVNMTEDTSTDTAYMELSSLRSDDTTVYFCASLLPYFDYWGQGTLVTVSS VL: EIVLTQSPGTLSLSPGERATLSCRASQSVSSSYLAWYQQKPGQAPRLLIYGASSRATGIPDRFSGSGSGTDFTLSISRLEPEDFAVYFCQQYGSSMYTFGQGTKLEIK    0.000377
H4H1772P (antibody, human IgG4, V domains shown, Human IgG4 Fc (H4H)) VH: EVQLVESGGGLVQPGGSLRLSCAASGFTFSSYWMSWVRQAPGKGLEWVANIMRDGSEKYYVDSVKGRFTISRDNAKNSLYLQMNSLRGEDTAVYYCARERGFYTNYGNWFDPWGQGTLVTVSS VL: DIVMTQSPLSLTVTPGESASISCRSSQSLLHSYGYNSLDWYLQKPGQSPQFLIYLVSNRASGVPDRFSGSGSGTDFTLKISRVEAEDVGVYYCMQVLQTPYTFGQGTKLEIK    5.98e-05
H3M1766N (antibody, V domains shown, Human variable domains, mouse Fc (H3M); also called H2M1766N) VH: EVQLVESGGGLAQPGGSLRLSCAASGFTFSSYEMNWVRQAPGKGLEWVSYITTSGSTIYYADSVKGRFTMSRDNAKKSLYLEMNSLRAEDTAVYYCAREECTNGVCYKDYQYYGMDVWGQGTTVTVSS VL: DIQMTQSPSSVSASVGDRVTITCRASQNINTWLAWYQQKPGKVPKLLIYAASSLQSGVPSRFSGSGSGTDFTLTISSLQPEDFATYYCQQANSFPLTFGGGTKVEIK    0.000324
H4H1763N (antibody, V domains shown, Human IgG4 Fc (H4H)) VH: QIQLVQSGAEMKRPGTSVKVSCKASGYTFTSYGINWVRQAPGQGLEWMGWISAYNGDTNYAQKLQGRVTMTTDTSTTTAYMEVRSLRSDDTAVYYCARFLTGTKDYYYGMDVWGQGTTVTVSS VL: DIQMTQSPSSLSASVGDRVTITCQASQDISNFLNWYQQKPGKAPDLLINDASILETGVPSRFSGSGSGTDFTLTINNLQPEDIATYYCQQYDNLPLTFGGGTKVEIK    6.28e-05

Record summary for H4H1774P (antibody, human IgG4, V domains shown, Human IgG4 Fc (H4H)) VH: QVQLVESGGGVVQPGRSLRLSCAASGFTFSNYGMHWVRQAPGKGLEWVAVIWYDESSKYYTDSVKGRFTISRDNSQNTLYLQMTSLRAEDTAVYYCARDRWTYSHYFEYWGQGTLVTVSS VL: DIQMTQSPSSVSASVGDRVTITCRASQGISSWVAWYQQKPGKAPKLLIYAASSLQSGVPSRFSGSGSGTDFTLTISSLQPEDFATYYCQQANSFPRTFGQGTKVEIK : reported koff = 1.6e-05

Record summary for H2M1712N (antibody, mouse IgG2, V domains shown, Human variable domains, mouse IgG2 Fc (H2M)) VH: QIQLVQSGAEMKRPGTSVKVSCKASGYTFSSYGINWVRQAPGQGLEWMGWISAYNGDTNYAQKLQGRVTMTTDTSTTTAYMEVRSLRSDDTAVYYCARFLTGTKDLYYGMDVWGQGTTVTVSS VL: DIQMTQSPSSLSASVGDRVTITCQASQDISNFLNWYQQKPGKAPDLLINDASILETGVPSRFSGSGSGTDFTLTINSLQPEDIATYYCQQYDNLPLTFGGGTKVEIK : reported koff = 0.000685

Just for reference, patent US20130230533A1 is where these values come from.
